Source: paper PMC5681660

Catalogue of B-score functional assay values
target: UniProt Q14973; experiment: Screening taurocholate uptake assay (96-well, [14C]taurocholate, 10 µM drug); details: screen, 10 µM drug, taurocholate uptake
Counter-ions that a name gives are not always drawn.
Answer field: number only, no words.

# example entries with known answers
[
  {
    "COMPOUND": "CC(C)C[C@H]1C(=O)N2CCC[C@H]2[C@]2(O)O[C@](NC(=O)[C@@H]3C=C4c5cccc6[nH]c(Br)c(c56)C[C@H]4N(C)C3)(C(C)C)C(=O)N12.CS(=O)(=O)O [Bromocryptine mesylate]",
    "TESTED ON": "UniProt Q14973",
    "MEASURED RESULT": -0.957
  },
  {
    "COMPOUND": "CC(C(=O)[O-])c1cccc(Oc2ccccc2)c1.CC(C(=O)[O-])c1cccc(Oc2ccccc2)c1.O.O.[Ca+2] (stereo not drawn) [Fenoprofen calcium salt dihydrate]",
    "TESTED ON": "UniProt Q14973",
    "MEASURED RESULT": -0.759
  },
  {
    "COMPOUND": "N[C@@H](Cc1cc(I)c(Oc2cc(I)c(O)c(I)c2)c(I)c1)C(=O)O",
    "TESTED ON": "UniProt Q14973",
    "MEASURED RESULT": 0.005
  },
  {
    "COMPOUND": "CCN(CC)CCOC(=O)C(c1ccccc1)c1ccccc1 [Adiphenine hydrochloride]",
    "TESTED ON": "UniProt Q14973",
    "MEASURED RESULT": -0.012
  }
]

Lookup result for CNCCCC12CCC(c3ccccc31)c1ccccc12 [Maprotiline hydrochloride] ; measured B-score functional assay: -0.051

Lookup result for CC(C)NC[C@H](O)COc1ccc(CC(N)=O)cc1 [(S)-(-)-Atenolol] ; measured B-score functional assay: -0.386

* * *

Molecular target: human NTCP (Homo sapiens, UniProt Q14973)
Sequence (Q14973 1-349): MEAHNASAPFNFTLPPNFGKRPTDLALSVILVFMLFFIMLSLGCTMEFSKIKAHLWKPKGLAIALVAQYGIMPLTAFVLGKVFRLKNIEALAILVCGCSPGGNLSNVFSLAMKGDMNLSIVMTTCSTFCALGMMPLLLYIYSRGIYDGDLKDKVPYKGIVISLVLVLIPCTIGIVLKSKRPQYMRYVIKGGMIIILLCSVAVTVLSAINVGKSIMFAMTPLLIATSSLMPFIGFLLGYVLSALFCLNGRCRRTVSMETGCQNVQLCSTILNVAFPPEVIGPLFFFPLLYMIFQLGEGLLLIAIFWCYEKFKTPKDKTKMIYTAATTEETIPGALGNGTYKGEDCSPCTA
Test: Taurocholate uptake inhibition studies in U2OS-HA-hNTCP cells
Type: cell-based
Set-up: HA; expressed in transfected cells
Details: U2OS-HA-hNTCP cells; concentrations 1 nM to 10 mM; read-out: IC50 for hNTCP-mediated TC uptake
Method: For MDCK or MDCK-hASBT cells 70.000 cells/well were plated in 24-well plates, followed by 24 hours 10 mM sodium butyrate (Sigma-Aldrich) stimulation the next day. Cells were used in the inhibition studies 24 hours (U2OS cell lines) or 48 hours (MDCK cell lines) later. […] Medium was aspirated from the wells and cells were washed once with 250 µL uptake buffer. […] Radioactivity was measured by liquid scintillation counting.
Catalogue of pIC50 values
On this scale, pIC50 is minus log10 of a concentration expressed in M (mol/L).

# example entries with known answers
[
  {
    "COMPOUND": "COc1cc(C(=O)NS(=O)(=O)c2ccccc2C)ccc1Cc1cn(C)c2ccc(NC(=O)OC3CCCC3)cc12",
    "pIC50": 5.19
  },
  {
    "COMPOUND": "Cc1c(Cl)cccc1Nc1ccccc1C(=O)O",
    "pIC50": 4.90
  },
  {
    "COMPOUND": "CS(=O)(=O)O.Cc1c(O)cccc1C(=O)N[C@@H](CSc1ccccc1)[C@H](O)CN1C[C@H]2CCCC[C@H]2C[C@H]1C(=O)NC(C)(C)C [Nelfinavir Mesylate Hydrate]",
    "pIC50": 3.87
  },
  {
    "COMPOUND": "COc1cc(-c2ccc(N=Nc3ccc4c(S(=O)(=O)[O-])cc(S(=O)(=O)[O-])c(N)c4c3O)c(OC)c2)ccc1N=Nc1ccc2c(S(=O)(=O)[O-])cc(S(=O)(=O)[O-])c(N)c2c1O.[Na+].[Na+].[Na+].[Na+]",
    "pIC50": 5.15
  },
  {
    "COMPOUND": "Cc1cc(-n2c(=O)[nH]c(=O)n(C)c2=O)ccc1Oc1ccc(SC(F)(F)F)cc1",
    "pIC50": 4.08
  }
]

Lookup result for `O=C(O)c1cc(/N=N/c2ccc(S(=O)(=O)Nc3ccccn3)cc2)ccc1O` ; measured pIC50: 5.02

Lookup result for Nc1c2c(nc3ccccc13)CCCC2O.O=C(O)/C=C\C(=O)O (centres unmarked) [Hydroxytacrine Maleate] ; measured pIC50: 2.38

Lookup result for `O=C(O)c1ccccc1Nc1cccc(C(F)(F)F)c1` ; measured pIC50: 5.00
